Assay: wn = mass fraction of the nth substance listed
Conditions: 323.15 K; 101 kPa; Liquid; Taylor dispersion method; w1 = 0.4
A collection of compounds and their measured binary diffusion coefficient
outcome_measure: binary diffusion coefficient (m2/s)

{"compound": "CN(C)CCCN(C)C [N,N,N',N'-tetramethyl-1,3-propanediamine] + O", "observed": "4.32e-10"}
{"compound": "CN(C)CCN(C)C [N,N,N',N'-tetramethyl-1,2-diaminoethane] + O", "observed": "5.31e-10"}
{"compound": "CNCCCN [N-methyl-1,3-diaminopropane] + O", "observed": "9.77e-10"}
{"compound": "NCCNCCN [di(2-aminoethyl)amine] + O", "observed": "9.61e-10"}

---

Assay: wn = mass fraction of the nth substance listed
Details: 308.15 K; 101 kPa; Liquid; Falling or rolling sphere viscometry; w1 = 0.4

{"compound": "CN(C)CCN(C)C [N,N,N',N'-tetramethyl-1,2-diaminoethane] + O", "viscosity, mPa·s": 4.925}
{"compound": "NCCNCCN [di(2-aminoethyl)amine] + O", "viscosity, mPa·s": 5.915}
{"compound": "CN(C)CCCN(C)C [N,N,N',N'-tetramethyl-1,3-propanediamine] + O", "viscosity, mPa·s": 4.853}
{"compound": "CNCCCN [N-methyl-1,3-diaminopropane] + O", "viscosity, mPa·s": 4.451}

---

Measured mass density, listed per entry for reference.
Assay: wn = mass fraction of the nth substance listed
Conditions: 308.15 K; 101 kPa; Liquid; Vibrating tube method; w1 = 0.2

{"compound": "CN(C)CCCN(C)C [N,N,N',N'-tetramethyl-1,3-propanediamine] + O", "mass density (kg/m3)": 969.8}
{"compound": "CN(C)CCN(C)C [N,N,N',N'-tetramethyl-1,2-diaminoethane] + O", "mass density (kg/m3)": 970}
{"compound": "CNCCCN [N-methyl-1,3-diaminopropane] + O", "mass density (kg/m3)": 981.6}
{"compound": "NCCNCCN [di(2-aminoethyl)amine] + O", "mass density (kg/m3)": 1000.8}

---

Experiment: wn = mass fraction of the nth substance listed
Conditions: 318.15 K; 101 kPa; Liquid; Falling or rolling sphere viscometry; w1 = 0.3
Numbers after ± are expanded uncertainties.

{"molecule": "CNCCCN [N-methyl-1,3-diaminopropane] + O", "viscosity": "2.059 ± 0.044 mPa·s"}
{"molecule": "CN(C)CCN(C)C [N,N,N',N'-tetramethyl-1,2-diaminoethane] + O", "viscosity": "2.287 ± 0.049 mPa·s"}
{"molecule": "NCCNCCN [di(2-aminoethyl)amine] + O", "viscosity": "2.234 ± 0.049 mPa·s"}
{"molecule": "CN(C)CCCN(C)C [N,N,N',N'-tetramethyl-1,3-propanediamine] + O", "viscosity": "2.264 ± 0.049 mPa·s"}

---

Assay: wn = mass fraction of the nth substance listed
Settings: 313.15 K; 101 kPa; Liquid; Vibrating tube method; w1 = 0.4
Listed next: entries and their corresponding mass density.

{"compound": "NCCNCCN [di(2-aminoethyl)amine] + O", "unit_annotation": "kg/m3", "mass density": 1009.9}
{"compound": "CN(C)CCN(C)C [N,N,N',N'-tetramethyl-1,2-diaminoethane] + O", "unit_annotation": "kg/m3", "mass density": 939.5}
{"compound": "CN(C)CCCN(C)C [N,N,N',N'-tetramethyl-1,3-propanediamine] + O", "unit_annotation": "kg/m3", "mass density": 936.6}
{"compound": "CNCCCN [N-methyl-1,3-diaminopropane] + O", "unit_annotation": "kg/m3", "mass density": 968.4}

---

Test: wn = mass fraction of the nth substance listed
Details: 303.15 K; 101 kPa; Liquid; Vibrating tube method; w1 = 0.4

{"molecule": "CNCCCN [N-methyl-1,3-diaminopropane] + O", "mass density [kg/m3]": 975.9}
{"molecule": "CN(C)CCN(C)C [N,N,N',N'-tetramethyl-1,2-diaminoethane] + O", "mass density [kg/m3]": 947.8}
{"molecule": "CN(C)CCCN(C)C [N,N,N',N'-tetramethyl-1,3-propanediamine] + O", "mass density [kg/m3]": 944.6}
{"molecule": "NCCNCCN [di(2-aminoethyl)amine] + O", "mass density [kg/m3]": 1016.2}

---

Experiment: wn = mass fraction of the nth substance listed
Conditions: 308.15 K; 101 kPa; Liquid; Vibrating tube method; w1 = 0.3
outcome_measure: mass density (kg/m3)

{"compound": "CN(C)CCN(C)C [N,N,N',N'-tetramethyl-1,2-diaminoethane] + O", "observed": 958.6}
{"compound": "NCCNCCN [di(2-aminoethyl)amine] + O", "observed": 1007.2}
{"compound": "CNCCCN [N-methyl-1,3-diaminopropane] + O", "observed": 977.7}
{"compound": "CN(C)CCCN(C)C [N,N,N',N'-tetramethyl-1,3-propanediamine] + O", "observed": 956.7}

---

Test: wn = mass fraction of the nth substance listed
Conditions: 303.15 K; 101 kPa; Liquid; Falling or rolling sphere viscometry; w1 = 0.1
outcome_measure: viscosity (mPa·s)

{"compound": "CN(C)CCCN(C)C [N,N,N',N'-tetramethyl-1,3-propanediamine] + O", "outcome_measure": "viscosity", "observed": 1.345}
{"compound": "CNCCCN [N-methyl-1,3-diaminopropane] + O", "outcome_measure": "viscosity", "observed": 1.231}
{"compound": "CN(C)CCN(C)C [N,N,N',N'-tetramethyl-1,2-diaminoethane] + O", "outcome_measure": "viscosity", "observed": 1.34}
{"compound": "NCCNCCN [di(2-aminoethyl)amine] + O", "outcome_measure": "viscosity", "observed": 1.211}

---

Experiment: wn = mass fraction of the nth substance listed
Details: 308.15 K; 101 kPa; Liquid; Taylor dispersion method; w1 = 0.1

{"compound": "CN(C)CCN(C)C [N,N,N',N'-tetramethyl-1,2-diaminoethane] + O", "binary diffusion coefficient": "6.29e-10 m2/s"}
{"compound": "CN(C)CCCN(C)C [N,N,N',N'-tetramethyl-1,3-propanediamine] + O", "binary diffusion coefficient": "5.53e-10 m2/s"}
{"compound": "NCCNCCN [di(2-aminoethyl)amine] + O", "binary diffusion coefficient": "7.93e-10 m2/s"}
{"compound": "CNCCCN [N-methyl-1,3-diaminopropane] + O", "binary diffusion coefficient": "8.63e-10 m2/s"}

---

Experiment: wn = mass fraction of the nth substance listed
Conditions: 323.15 K; 101 kPa; Liquid; Vibrating tube method; w1 = 0.4

{"compound": "NCCNCCN [di(2-aminoethyl)amine] + O", "mass density, kg/m3": 1003.4}
{"compound": "CN(C)CCCN(C)C [N,N,N',N'-tetramethyl-1,3-propanediamine] + O", "mass density, kg/m3": 928.4}
{"compound": "CN(C)CCN(C)C [N,N,N',N'-tetramethyl-1,2-diaminoethane] + O", "mass density, kg/m3": 931}
{"compound": "CNCCCN [N-methyl-1,3-diaminopropane] + O", "mass density, kg/m3": 960.7}

---

Experiment: wn = mass fraction of the nth substance listed
Conditions: 318.15 K; 101 kPa; Liquid; Taylor dispersion method; w1 = 0.3
outcome_measure: binary diffusion coefficient

{"molecule": "NCCNCCN [di(2-aminoethyl)amine] + O", "outcome_measure": "binary diffusion coefficient", "observed": "8.82e-10 m2/s"}
{"molecule": "CN(C)CCN(C)C [N,N,N',N'-tetramethyl-1,2-diaminoethane] + O", "outcome_measure": "binary diffusion coefficient", "observed": "5.53e-10 m2/s"}
{"molecule": "CNCCCN [N-methyl-1,3-diaminopropane] + O", "outcome_measure": "binary diffusion coefficient", "observed": "9.22e-10 m2/s"}
{"molecule": "CN(C)CCCN(C)C [N,N,N',N'-tetramethyl-1,3-propanediamine] + O", "outcome_measure": "binary diffusion coefficient", "observed": "4.58e-10 m2/s"}

---

Assay: wn = mass fraction of the nth substance listed
Conditions: 303.15 K; 101 kPa; Liquid; Taylor dispersion method; w1 = 0.2

{"compound": "CN(C)CCN(C)C [N,N,N',N'-tetramethyl-1,2-diaminoethane] + O", "unit_annotation": "m2/s", "binary diffusion coefficient": "4.62e-10"}
{"compound": "CN(C)CCCN(C)C [N,N,N',N'-tetramethyl-1,3-propanediamine] + O", "unit_annotation": "m2/s", "binary diffusion coefficient": "3.74e-10"}
{"compound": "CNCCCN [N-methyl-1,3-diaminopropane] + O", "unit_annotation": "m2/s", "binary diffusion coefficient": "6.87e-10"}
{"compound": "NCCNCCN [di(2-aminoethyl)amine] + O", "unit_annotation": "m2/s", "binary diffusion coefficient": "6.64e-10"}

---

Experiment: wn = mass fraction of the nth substance listed
Details: 313.15 K; 101 kPa; Liquid; Falling or rolling sphere viscometry; w1 = 0.1
± gives the expanded uncertainty stated by the source.
Listing of entries alongside the reported viscosity.

{"molecule": "CN(C)CCCN(C)C [N,N,N',N'-tetramethyl-1,3-propanediamine] + O", "viscosity": "1.051 ± 0.023 mPa·s"}
{"molecule": "CN(C)CCN(C)C [N,N,N',N'-tetramethyl-1,2-diaminoethane] + O", "viscosity": "1.046 ± 0.023 mPa·s"}
{"molecule": "CNCCCN [N-methyl-1,3-diaminopropane] + O", "viscosity": "0.976 ± 0.021 mPa·s"}
{"molecule": "NCCNCCN [di(2-aminoethyl)amine] + O", "viscosity": "0.97 ± 0.021 mPa·s"}
